# system tested: CCR1 (Homo sapiens)
# Sequence (P32246 1-355): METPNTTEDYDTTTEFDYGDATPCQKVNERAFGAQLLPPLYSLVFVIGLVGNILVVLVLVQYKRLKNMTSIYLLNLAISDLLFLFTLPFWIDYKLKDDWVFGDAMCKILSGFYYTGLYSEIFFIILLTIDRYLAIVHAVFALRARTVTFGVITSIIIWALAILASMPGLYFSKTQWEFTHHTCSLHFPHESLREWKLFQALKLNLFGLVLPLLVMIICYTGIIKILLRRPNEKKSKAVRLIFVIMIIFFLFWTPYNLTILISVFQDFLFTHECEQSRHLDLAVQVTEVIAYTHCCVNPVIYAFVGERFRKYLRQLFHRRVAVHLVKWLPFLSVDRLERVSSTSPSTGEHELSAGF
# protocol details: Method A: calcium flux in CCR1 transfected cells (Fluo-4 NW, FLIPR TETRA), block of the CCR1/MIP-1α interaction
# Type: cell-based
# condition summary: Method A: Fluo-4 NW, MIP-1 alpha at EC80
measured quantity: IC50 (nM)

Example entries and their recorded answers appear below.
{"compound": "CC[C@H](NC(=O)c1cncc2c1cnn2-c1ccc(F)cc1)c1cncc(S(C)(=O)=O)c1", "measurement units": "nM", "reported value": 0.5}
{"compound": "O=C(NCc1ccc(N2CCCCS2(=O)=O)nc1)c1cncc2c1cnn2-c1ccc(F)cc1", "measurement units": "nM", "reported value": 9}
{"compound": "CN1CCN(S(=O)(=O)c2ccc(CNC(=O)c3cncc4c3cnn4-c3ccc(F)cc3)cc2)CC1", "measurement units": "nM", "reported value": 1}

A: O=C(NCc1ccc(S(=O)(=O)NCCO)cc1)c1cncc2c1cnn2-c1ccc(F)cc1
B: CCCC(NC(=O)c1cncc2c1cnn2-c1ccc(F)cc1)c1cncc(S(=O)(=O)NC)c1 (centres unmarked)
Consider entries A and B . Which has the numerically lower IC50? Reply with the label of the item you choose. B
